Just for reference, paper PMC10905675 is where these values come from.

- TARGET_ENTITY: CDK3/cyclin E1 (Homo sapiens)
- Construct: purchased BPS 40103
- Sequence (Q00526 whole entry): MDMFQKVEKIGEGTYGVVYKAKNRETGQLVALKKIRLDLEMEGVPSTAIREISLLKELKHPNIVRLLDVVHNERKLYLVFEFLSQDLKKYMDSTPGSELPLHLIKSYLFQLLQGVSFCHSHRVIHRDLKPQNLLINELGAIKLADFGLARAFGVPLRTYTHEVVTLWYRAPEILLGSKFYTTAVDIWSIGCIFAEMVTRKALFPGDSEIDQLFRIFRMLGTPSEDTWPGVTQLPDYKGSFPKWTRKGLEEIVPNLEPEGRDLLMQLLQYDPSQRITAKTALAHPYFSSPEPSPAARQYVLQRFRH
- Sequence (P24864 whole entry partner): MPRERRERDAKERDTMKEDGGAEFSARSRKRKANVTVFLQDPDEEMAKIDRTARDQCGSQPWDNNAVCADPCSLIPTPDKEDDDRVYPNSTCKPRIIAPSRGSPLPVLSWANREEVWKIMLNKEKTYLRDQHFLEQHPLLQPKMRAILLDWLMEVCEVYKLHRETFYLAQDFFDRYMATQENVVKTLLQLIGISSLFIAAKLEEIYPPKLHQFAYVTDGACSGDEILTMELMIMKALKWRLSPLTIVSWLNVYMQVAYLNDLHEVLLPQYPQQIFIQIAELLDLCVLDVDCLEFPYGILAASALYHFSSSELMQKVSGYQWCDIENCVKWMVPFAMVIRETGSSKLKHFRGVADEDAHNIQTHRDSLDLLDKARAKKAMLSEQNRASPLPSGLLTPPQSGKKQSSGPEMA
- TEST_SUMMARY: Nanosyn biochemical assay
- CONDITION_INFO: Supp Fig S1D, representative dose response curve, read-out: IC50 CDK3 - Cyclin E
PARAMETER_MEASURED: pIC50
One number for each entry, as −log10 of the molar value.

Kindly state the measured pIC50 obtained for NS(=O)(=O)c1ccc(Nc2ncc3cc4n(c3n2)C2(CCCCC2)C(=O)NN4)cc1 with CDK3/cyclin E1 (Homo sapiens).
7.82

###

- TARGET_ENTITY: CDK2/cyclin A1/E1/O (Homo sapiens)
- TEST_SUMMARY: SelectScreen follow-up dose-response
- CONDITION_INFO: dose-response 50 pmol/L to 1 µmol/L
PARAMETER_MEASURED: IC50

Consider the molecule shown here: NS(=O)(=O)c1ccc(Nc2ncc3cc4n(c3n2)C2(CCCCC2)C(=O)NN4)cc1 [INX-315] What is its recorded IC50?
≤ 4 nM
